Read-out: Cytochrome P450 3A4 (Homo sapiens) (UniProt P08684)
Sequence (P08684 whole entry, looked up): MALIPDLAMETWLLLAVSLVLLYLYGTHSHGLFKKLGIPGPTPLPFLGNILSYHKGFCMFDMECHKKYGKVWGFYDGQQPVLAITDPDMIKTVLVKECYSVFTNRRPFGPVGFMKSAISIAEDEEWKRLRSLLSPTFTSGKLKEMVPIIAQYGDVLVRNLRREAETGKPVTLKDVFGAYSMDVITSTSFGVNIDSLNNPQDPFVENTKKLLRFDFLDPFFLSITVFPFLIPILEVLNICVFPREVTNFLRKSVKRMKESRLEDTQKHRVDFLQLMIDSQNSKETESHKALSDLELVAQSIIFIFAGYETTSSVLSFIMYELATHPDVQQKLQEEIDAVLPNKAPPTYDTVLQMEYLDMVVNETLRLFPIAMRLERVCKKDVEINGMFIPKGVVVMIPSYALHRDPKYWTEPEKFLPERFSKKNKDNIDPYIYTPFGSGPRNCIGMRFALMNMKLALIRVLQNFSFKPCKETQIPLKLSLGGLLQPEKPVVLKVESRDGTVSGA
Test: LTEA_HepaRG_CYP3A4: Life Technologies and Expression Analysis (LTEA) Assay for CYP3A4 using HepaRG (AID 2283487)
Conditions: mRNA level, 48 h; actives raise or lower the signal
Calls of active or inactive are those of the source. The calls were made as follows: active = hit-call score of the fitted dose curve at least 0.9, where 1 is the maximum; inactive = score below 0.9.
Lab note: assign the record to one of 1 = active, 0 = inactive

Below are worked cases with known answers.
COMPOUND	CAT
O=C(O)C(F)(F)C(F)(F)C(F)(F)C(F)(F)C(F)(F)C(F)(F)F	0
O=C(Nc1ccc2[nH]ccc2c1)c1cc2cc(F)ccc2n1Cc1cccc(F)c1	1
O=[N+]([O-])c1ccc(O)c([N+](=O)[O-])c1	1
CCOP(=S)(OCC)Oc1nc(Cl)c(Cl)cc1Cl	1

Prompt: Short answer needed: outcome of this test for ClC1(Cl)C2(Cl)C3(Cl)C4(Cl)C(Cl)(Cl)C5(Cl)C3(Cl)C1(Cl)C5(Cl)C24Cl (stereo not drawn) ?
Response: 1

Prompt: Short answer needed: outcome of this test for CC(C)(C)CC(C)(C)c1ccc(O)cc1 ?
Response: 0

Prompt: Short answer needed: outcome of this test for CCOP(=S)(OCC)SCSP(=S)(OCC)OCC ?
Response: 1

Prompt: Short answer needed: outcome of this test for CCN1CCC2(CC1)COc1cc3c(cc12)N(C(=O)c1ccc(-c2ccc(-c4nnc(C)o4)cc2C)cc1)CC3 ?
Response: 1

* * *

Biological target: Nuclear receptor subfamily 1 group I member 2 (Homo sapiens)
Test: ATG_PXR_TRANS: Attagene TRANS-FACTORIAL HepG2 Assay for human Pregnane X Receptor (PXR) (AID 2283008)
Results filed as inconclusive are left out. The source made the active and inactive calls. How the source made its calls: active means hit-call score of the fitted dose curve at least 0.9, where 1 is the maximum; inconclusive means response in the unintended direction; inactive means score below 0.9.
Lab note: assign the record to one of 1 = active, 0 = inactive

Below are worked cases with known answers.
COMPOUND	CAT
CC(C)CCCCCCOC(=O)c1ccccc1C(=O)OCCCCCCC(C)C	1
CC(Br)C(=O)O (centres undefined)	0
CCNc1nc(NC(C)(C)C)nc(SC)n1	1
CCC[CH2][Sn]([Cl])([Cl])[Cl]	0

Prompt: Short answer needed: outcome of this test for C[C@H]1CCCC(=O)CCC/C=C/c2cc(O)cc(O)c2C(=O)O1 ?
Response: 1

Prompt: Short answer needed: outcome of this test for CC1(C)CCC(Cc2ccc(Cl)cc2)C1(O)Cn1cncn1 (centres undefined) ?
Response: 1

Prompt: Short answer needed: outcome of this test for CC(=O)C=C(C)C ?
Response: 0

Prompt: Short answer needed: outcome of this test for ClC(Cl)=C(Cl)C(Cl)=C(Cl)Cl ?
Response: 0

Prompt: Short answer needed: outcome of this test for CCCCP(CCCC)CCCC ?
Response: 1

Prompt: Short answer needed: outcome of this test for C=CC(=O)OCCCCCC(C)C ?
Response: 0

* * *

Assay: BSK_LPS_PGE2: BioMAP Diversity Plus: LPS Assay for Prostaglandin E2 (PGE2) Biomarker Activity (AID 2283082)
Details: primary human HUVEC with PBMC; actives raise or lower the signal
Protocol: BSK_LPS is a cell-based, multiplexed-readout assay that uses umbilical vein endothelium and peripheral blood mononuclear cells, a human vascular primary cell co-culture, with measurements taken at 24 hours after chemical dosing in a 96-well plate.BSK_LPS_PGE2 is an assay component measured in the BSK_LPS assay. It measures PGE2 antibody related to regulation of gene expression using ELISA technology.Data from the assay component BSK_LPS_PGE2 was analyzed into 1 assay endpoint. […]
Active and inactive are the calls of the source. The calls were made as follows: active = hit-call score of the fitted dose curve at least 0.9, where 1 is the maximum; inactive = score below 0.9.
Lab note: assign the record to one of active, inactive

MOLECULE	CAT
COC(=O)Cc1ccccc1	inactive
CC(=O)[O][Hg][c]1ccccc1	active
O=c1[nH]c(=O)[nH]c(=O)[nH]1	inactive

Prompt: Short answer needed: outcome of this test for CCCCC(CC)CO[N+](=O)[O-] (centres undefined) ?
Response: inactive

Prompt: Short answer needed: outcome of this test for CCOP(=S)(OCC)SCCS(=O)(=O)CC ?
Response: inactive
